# maps each entry to its protein stability index
B1: SPSB1 (parent)
chain: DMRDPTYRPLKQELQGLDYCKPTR

# Variants of: B1
# Experimental Details: protein stability index of a GFP-peptide fusion (GPS, HEK-293T) (PSI 1-6); higher = more stable;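 note: lentivirally expressed fusions sorted by FACS into six bins by GFP to DsRed ratio, PSI derived from sequencing read proportions per bin multiplied by bin number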
# Experimental Conditions: c terminus: a fixed tail appended

Some entries whose results are on file:
>>> value_reported("G16I")
2.17
>>> value_reported("P22M")
3.07
>>> value_reported("G16Q")
3.94

// query Output protein stability index of T6Q
// result 3.55

// query Annotate the variant R8V with its measured protein stability index.
// result 3.27

// query Please supply the value of reported protein stability index for the item E13V
// result 3.1
